# credit: the supplement of paper PMC10567573

B1: ZNF263 (parent)
chain: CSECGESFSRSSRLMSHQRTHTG

Variants of: B1
Experiment: protein stability index of a GFP-peptide fusion (GPS, HEK-293T) (PSI 1-6); higher = more stable;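 note: lentivirally expressed fusions sorted by FACS into six bins by GFP to DsRed ratio, PSI derived from sequencing read proportions per bin multiplied by bin number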
Settings: c terminus: native
Task for the reader: assign each of the following variants its reported protein stability index.
Just the number, please, no unit after it.

Find the measured protein stability index of CSECGESISRSSRLMSHQRTHTG [F8I] and report it.
1.21

Supply recorded protein stability index for CSECGESFSRCSRLMSHQRTHTG [S11C] here.
3.34

Identify protein stability index associated with the variant CSECGESFSRSSRLMSHQRTHSG [T22S]
2.23

Please report protein stability index for the following variant: CSECWESFSRSSRLMSHQRTHTG [G5W]
1.88

// fetch protein stability index given entry CSECGESFSRSSRLMSHWRTHTG [Q18W]
2.77

Give protein stability index for CSECGNSFSRSSRLMSHQRTHTG [E6N]
1.73

Look up and report measured protein stability index for this entry: CSECGESFSRSSRLMSHNRTHTG [Q18N]
2.16

Item CSECGTSFSRSSRLMSHQRTHTG [E6T] : provide protein stability index
1.76

Look up and report measured protein stability index for this entry: CSECGESFKRSSRLMSHQRTHTG [S9K]
2.23

Supply protein stability index value. Item: CSECGESFQRSSRLMSHQRTHTG [S9Q]
1.94

Read the entry CSECGESFYRSSRLMSHQRTHTG [S9Y] and write its reported protein stability index.
3.1

Return protein stability index (reported value) for this variant: CSECGLSFSRSSRLMSHQRTHTG [E6L]
3.22

Determine its reported protein stability index: CSECGESFSRSSRAMSHQRTHTG [L14A]
2.39

For CSECGESFSRSWRLMSHQRTHTG [S12W] , write its protein stability index.
2.13

Kindly indicate its recorded protein stability index. Item: CSECGESFSRSSRLHSHQRTHTG [M15H]
3.24

Return reported protein stability index. Input variant: CSECGESFSRSSRTMSHQRTHTG [L14T]
2.05

Name the recorded protein stability index of the item CEECGESFSRSSRLMSHQRTHTG [S2E] in your answer.
3.24

Indicate the recorded protein stability index value for this variant: CSECGESFSRSSRVMSHQRTHTG [L14V]
1.45

Recall and state the measured protein stability index for CSECKESFSRSSRLMSHQRTHTG [G5K] .
1.29

Give the reported protein stability index for this variant. CSECGESFSRSSRLMSHQRTHCG [T22C]
2.08

In one line, give reported protein stability index of the entry CSETGESFSRSSRLMSHQRTHTG [C4T] .
1.56

Using the record for CSEHGESFSRSSRLMSHQRTHTG [C4H] , state its measured protein stability index.
1.4
